# maps each entry to its TGI
System: IGROV-1
protocol-summary: Antiproliferative activity against human IGROV-1 cells measured after 48 hrs by SRB assay
Type: functional, cell-based
stated-conditions: IGROV-1, time 48 hrs
measurement-name: TGI (µM)

compound-smiles | relation-operator | meas-value
O=C(NCCCNc1cc(-c2cn(-c3ccccc3)nc2-c2cccc(O)c2)ccn1)Nc1ccc(F)cc1 | = | 5.82
O=C1c2ccccc2-c2n[nH]c3cccc1c23 | > | 100
COc1cccc(-c2nn(-c3ccccc3)cc2-c2ccnc(NCCCNC(=O)Nc3ccc(F)cc3)c2)c1 | > | 37
O=C(NCCCNc1cc(-c2cn(-c3ccccc3)nc2-c2cccc(O)c2)ccn1)Nc1cccc(C(F)(F)F)c1 | = | 7.98
CNC(=O)c1cc(Oc2ccc(NC(=O)Nc3ccc(Cl)c(C(F)(F)F)c3)cc2)ccn1 | = | 10
O=C(Nc1ccc(Cl)c(C(F)(F)F)c1)N1CCN(c2cc(-c3cn(-c4ccccc4)nc3-c3cccc(O)c3)ccn2)CC1 | > | 22

* * *

System: MOLT-4
protocol-summary: Antiproliferative activity against human MOLT-4 cells measured after 48 hrs by SRB assay
Format: functional, cell-based
stated-conditions: MOLT-4, 48 h

compound-smiles | IC50
O=C(NCCCNc1cc(-c2cn(-c3ccccc3)nc2-c2cccc(O)c2)ccn1)Nc1ccc(F)cc1 | 1.25 µM
O=C1c2ccccc2-c2n[nH]c3cccc1c23 | 20.4 µM
O=C(Nc1ccc(Cl)c(C(F)(F)F)c1)N1CCN(c2cc(-c3cn(-c4ccccc4)nc3-c3cccc(O)c3)ccn2)CC1 | 0.93 µM
COc1cccc(-c2nn(-c3ccccc3)cc2-c2ccnc(NCCCNC(=O)Nc3ccc(F)cc3)c2)c1 | 3.94 µM
O=C(NCCCNc1cc(-c2cn(-c3ccccc3)nc2-c2cccc(O)c2)ccn1)Nc1cccc(C(F)(F)F)c1 | 1.67 µM

* * *

target-system: Mitogen-activated protein kinase 10 (Homo sapiens, UniProt P53779)
Sequence (P53779 whole entry): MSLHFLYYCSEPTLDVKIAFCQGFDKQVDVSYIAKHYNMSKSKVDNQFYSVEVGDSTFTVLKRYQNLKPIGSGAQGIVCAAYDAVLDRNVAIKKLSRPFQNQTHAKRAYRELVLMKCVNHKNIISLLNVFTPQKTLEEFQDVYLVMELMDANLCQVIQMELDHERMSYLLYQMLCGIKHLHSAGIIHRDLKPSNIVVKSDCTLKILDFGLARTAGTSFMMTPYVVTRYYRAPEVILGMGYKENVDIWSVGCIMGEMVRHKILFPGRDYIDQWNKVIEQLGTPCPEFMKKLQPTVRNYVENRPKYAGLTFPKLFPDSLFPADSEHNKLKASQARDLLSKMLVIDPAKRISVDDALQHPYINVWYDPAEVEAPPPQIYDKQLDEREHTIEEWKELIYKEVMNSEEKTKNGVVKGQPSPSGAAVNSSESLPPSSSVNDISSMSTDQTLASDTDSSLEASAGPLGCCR
protocol-summary: Inhibition of JNK3 (unknown origin) at 1 uM relative to control

compound-smiles | inhibition
COc1cccc(-c2nn(-c3ccccc3)cc2-c2ccnc(N3CCN(C(=O)Nc4cc(C(F)(F)F)cc(C(F)(F)F)c4)CC3)c2)c1 | 9%
COc1cccc(-c2nn(-c3ccccc3)cc2-c2ccnc(N3CCN(C(=O)Nc4ccccc4)CC3)c2)c1 | 8%
O=C(NCCNc1cc(-c2cn(-c3ccccc3)nc2-c2cccc(O)c2)ccn1)Nc1ccc(Cl)c(Cl)c1 | 69%
COc1cccc(-c2nn(-c3ccccc3)cc2-c2ccnc(N3CCN(C(=O)Nc4ccc(F)cc4)CC3)c2)c1 | 0%
O=C(NCCCNc1cc(-c2cn(-c3ccccc3)nc2-c2cccc(O)c2)ccn1)Nc1ccc(Cl)c(C(F)(F)F)c1 | 63%
O=C(Nc1ccc(F)cc1)N1CCN(c2cc(-c3cn(-c4ccccc4)nc3-c3cccc(O)c3)ccn2)CC1 | 8%
COc1cccc(-c2nn(-c3ccccc3)cc2-c2ccnc(N3CCN(C(=O)Nc4ccc(Cl)c(C(F)(F)F)c4)CC3)c2)c1 | 7%
COc1cccc(-c2nn(-c3ccccc3)cc2-c2ccnc(N3CCN(C(=O)Nc4cccc(C(F)(F)F)c4)CC3)c2)c1 | 10%
O=C(Nc1ccc(Cl)c(C(F)(F)F)c1)N1CCN(c2cc(-c3cn(-c4ccccc4)nc3-c3cccc(O)c3)ccn2)CC1 | 14%
O=C(NCCCNc1cc(-c2cn(-c3ccccc3)nc2-c2cccc(O)c2)ccn1)Nc1cccc(C(F)(F)F)c1 | 73%
O=C(Nc1ccccc1)N1CCN(c2cc(-c3cn(-c4ccccc4)nc3-c3cccc(O)c3)ccn2)CC1 | 6%
O=C(NCCNc1cc(-c2cn(-c3ccccc3)nc2-c2cccc(O)c2)ccn1)Nc1ccc(Cl)c(C(F)(F)F)c1 | 38%
O=C(NCCCNc1cc(-c2cn(-c3ccccc3)nc2-c2cccc(O)c2)ccn1)Nc1ccc(Cl)c(Cl)c1 | 13%
O=C(NCCNc1cc(-c2cn(-c3ccccc3)nc2-c2cccc(O)c2)ccn1)Nc1cccc(C(F)(F)F)c1 | 84%
O=C(NCCCNc1cc(-c2cn(-c3ccccc3)nc2-c2cccc(O)c2)ccn1)Nc1ccc(F)cc1 | 94%
COc1cccc(-c2nn(-c3ccccc3)cc2-c2ccnc(N3CCN(C(=O)Nc4ccc(Cl)c(Cl)c4)CC3)c2)c1 | 4%
